Please go through the items and note down their Plant response rating, Crabgrass.
- Tested on: crabgrass
- METHOD: Test B pre/postemergence crabgrass
- Assay type: in vivo, Digitaria sanguinalis
- MEASUREMENT_CONDITIONS: Postemergence, Rate 500 g/ha; scale of 0 to 10 where 0 is no effect and 10 is complete control

// query Plant response rating, Crabgrass value for entry C=C(Cl)Cn1c(=O)on(C(=O)N(c2ccccc2)C(C)C)c1=O [Compound 608] 7

// query Plant response rating, Crabgrass value for entry CC(C)N(C(=O)n1oc(=O)n(C(C)CBr)c1=O)c1ccc(F)cc1F (stereo not drawn) [Compound 594] 9

// query Plant response rating, Crabgrass value for entry CC(C)N(C(=O)n1oc(=O)n(CCC(=O)N(C)C)c1=O)c1ccc(F)cc1 [Compound 638] 9

// query Plant response rating, Crabgrass value for entry CC(C)N(C(=O)n1oc(=O)n(CC(=O)C2CCC2)c1=O)c1ccc(F)cc1F [Compound 642] 5

// query Plant response rating, Crabgrass value for entry CCCCCn1c(=O)on(C(=O)N(c2ccccc2)C(C)C)c1=O [Compound 557] 4

// query Plant response rating, Crabgrass value for entry C=CCCCn1c(=O)on(C(=O)N(c2ccccc2)C(C)C)c1=O [Compound 575] 9

====

Please go through the items and note down their Crabgrass plant response rating (0 to 10 scale).
- Test system: crabgrass
- METHOD: Test B pre/postemergence crabgrass
- Type: in vivo, Digitaria sanguinalis
- MEASUREMENT_CONDITIONS: Preemergence, Rate 125 g/ha
Number only, no unit.

// query Crabgrass plant response rating (0 to 10 scale) value for entry CC(C)N(C(=O)n1oc(=O)n(Cc2ccccc2-c2ccccc2)c1=O)c1ccc(F)cc1 0

// query Crabgrass plant response rating (0 to 10 scale) value for entry CC(C)N(C(=O)n1oc(=O)n(C)c1=O)c1ccc(F)cc1F 10

// query Crabgrass plant response rating (0 to 10 scale) value for entry CC(C)N(C(=O)n1oc(=O)n(C2(C)CC2)c1=O)c1ccc(F)cc1F 7

// query Crabgrass plant response rating (0 to 10 scale) value for entry CC(C)N(C(=O)n1oc(=O)n(Cc2nnsc2Cl)c1=O)c1ccc(F)cc1F 3

====

- System: giant foxtail
- METHOD: Test B pre/postemergence giant foxtail
- Format: in vivo, Setaria faberii
- MEASUREMENT_CONDITIONS: Preemergence, Rate 250 g/ha; scale of 0 to 10 where 0 is no effect and 10 is complete control
Please go through the items and note down their Plant response rating, Giant foxtail.

// query Plant response rating, Giant foxtail value for entry CC(C)N(C(=O)n1oc(=O)n(C(C)C)c1=O)c1ccccc1 [Compound 113] 10

// query Plant response rating, Giant foxtail value for entry Cc1ccc(-n2c(=O)on(C(=O)N(c3ccc(F)cc3F)C(C)C)c2=O)c(C)c1 [Compound 24] 9

// query Plant response rating, Giant foxtail value for entry CCN(CC)C(=O)n1oc(=O)n(-c2ccc(F)cc2)c1=O [Compound 3] 1

// query Plant response rating, Giant foxtail value for entry CC(C)N(C(=O)n1oc(=O)n(-c2ccccc2OC(F)(F)F)c1=O)c1ccc(F)cc1 [Compound 14] 9

// query Plant response rating, Giant foxtail value for entry COc1cccc(C)c1-n1c(=O)on(C(=O)N(c2ccccc2)C(C)C)c1=O [Compound 73] 9

====

- Test system: morningglory
- METHOD: Test B pre/postemergence morningglory
- Assay type: in vivo, Ipomoea hederacea
- MEASUREMENT_CONDITIONS: Postemergence, Rate 125 g/ha; scale of 0 to 10 where 0 is no effect and 10 is complete control
OBSERVED_PROPERTY: Morningglory plant response rating
Number only, no unit.

Write down the reported Morningglory plant response rating of COC(=O)C(CCO)n1c(=O)on(C(=O)N(c2ccc(Cl)cc2)C(C)C)c1=O (centres unmarked) , test system: morningglory. 0

Write down the reported Morningglory plant response rating of CC(C)N(C(=O)n1oc(=O)n(CCCCCl)c1=O)c1ccc(Cl)cc1 , test system: morningglory. 3

Write down the reported Morningglory plant response rating of CC(C)N(C(=O)n1oc(=O)n(CCCCl)c1=O)c1ccc(F)cc1 , test system: morningglory. 3

Write down the reported Morningglory plant response rating of CC(C)N(C(=O)n1oc(=O)n(C(C)C)c1=O)c1ccccc1 , test system: morningglory. 5

Write down the reported Morningglory plant response rating of Cc1ccccc1-n1c(=O)on(C(=O)N(c2c(F)cccc2F)C(C)C)c1=O , test system: morningglory. 2
